Assay: MultiTox-Fluor Cytotoxicity Assay - LYMP1-003 - Live Cells (AID 962);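 also: cells exposed to compound for 16 hours at 37 °C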
Stated conditions: LYMP1-003 lymphoblastoid cells, MultiTox-Fluor live-cell protease fluorescence; series mostly up to 92.2 µM
Active and inactive are the calls of the source. Calls follow the shape of the dose curve; as a rule, active = well fitted cell-killing curve with a large enough effect; inconclusive = small, poorly fitted or top-dose-only effect; inactive = flat fitted curve, though single readings scatter.
Lab note: assign the record to one of active, inactive

Recorded test outcome, item Oc1ccc(O)cc1
active

For this compound, state the assay outcome: O=C(O)CCCCC(=O)O
inactive

Lab note: next compound to report on.
What did the test return for CC/C(=C(/CC)c1ccc(O)cc1)c1ccc(O)cc1 ?
inactive

----------
Assay: A High-Content qHTS Against Drug Library for the Identification of Small Molecules that Inhibit DYT1 Early Onset Primary Dystonia-Associated Cell Pathology (AID 1645839)
Stated conditions: HEK293 Flp-In EGFP-delE TorsinA, punctate imaging, 48 h; series mostly up to 46.1 µM
Description: Nicole Calakos M.D., Ph.D. Duke University School of Medicine, Durham, NC […] The bioassay described herein is a high-content image screen with two readouts. The "%pathology" readout is the primary qHTS data channel, while the "cellcount" is the counterscreen qHTS channel. Desired active compounds are those that show inhibition in %pathology channel but no activity or minimal toxicity in cellcount readout. […]
Results filed as inconclusive are left out. Active and inactive are the calls of the source. Calls follow the shape of the full dose curve.
Give your call using only these classes: active, inactive

Dear all, I need the recorded test outcome for C/C=C/c1ccc(OC)cc1 , thank you.
inactive

// outcome(item) with item = CC(=O)N/N=C/c1ccc([N+](=O)[O-])o1
inactive

Please indicate how the test categorized CC1(C)O[C@@H]2[C@@H](CO[C@@]3(COS(N)(=O)=O)OC(C)(C)O[C@@H]23)O1 .
inactive

# fetch the recorded call for CCCCCCCCCCCCCCCCCC(=O)OCC(O)CO (stereo unspecified) here
inactive

Would you mind telling me which call this test gave COc1cc2c(cc1OC)C(=O)C(CC1CCN(Cc3ccccc3)CC1)C2 (stereo unspecified) ?
active

Further cases:
Please let me know the test result on file for OCc1ccccc1O .
inactive

Dear colleague, could you share the recorded outcome for CCOC(=O)n1ccn(C)c1=S when you have a moment?
inactive

Recorded test outcome, item C=CCc1ccc(O)c(OC)c1
inactive

Assay outcome for CCN1CCCC1=O : what was it?
inactive

Each compound tested received a call. Report the one for COc1c(C)c2c(c(O)c1C/C=C(\C)CCC(=O)O)C(=O)OC2 .
inactive

So what was the verdict on NC(=O)CC[C@@H]1NC(=O)[C@H](Cc2ccccc2)NC(=O)[C@H](Cc2ccc(O)cc2)NC(=O)CCSSC[C@@H](C(=O)N2CCC[C@H]2C(=O)N[C@@H](CCCN=C(N)N)C(=O)NCC(N)=O)NC(=O)[C@H](CC(N)=O)NC1=O in this test?
inactive
